experiment: collision cross section in nitrogen (drift tube, single-field); higher = larger gas-phase ion size; details: ion type: [M+H]; ion source: APCI; ion mode: Positive;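 also: chemical standards at 10 µM analysed by drift tube IMS-QTOF MS in about 3.95 torr nitrogen, mean of duplicate injections differing ≤1%, mass error below 10 ppm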
Structures can show the parent of a compound that is named as a salt.

Compound	collision cross section in nitrogen / Å²
CCN(C(=O)c1cc(C)cc(OC[C@H](C)Nc2ccncc2)c1)C(C)C	186.4
CCC1COC(Cn2cncn2)(c2ccc(Cl)cc2Cl)O1 (centres undefined) [Etaconazole]	175.4
CCOC(=O)CP(=O)(OCC)OCC [Triethyl phosphonoacetate]	143.6
CCN(CC)CCOC(=O)c1ccc(N)cc1 [Procaine hydrochloride]	155.9
O=C(O)c1cccc(N(Cc2cccnc2)c2ccc(OC(F)F)c(OC(F)F)c2)c1	201.3
COc1ccc(C(CN(C)C)C2(O)CCCCC2)cc1 (centres undefined) [Venlafaxine hydrochloride]	170.8
Cc1ccc(-c2nc3ccccc3o2)cc1 [2-(4-Methylphenyl)-1,3-benzoxazole]	145.3
O=C(CCCN1CCC(O)(c2ccc(Cl)cc2)CC1)c1ccc(F)cc1 [Haloperidol]	195.1
Cc1cccc(N(C)C(=S)Oc2ccc3ccccc3c2)c1 [Tolnaftate]	175.5
CCCCc1ccc2c(n1)[C@@H](c1ccc(OC)cc1C[C@H](C)C(=O)O)[C@H](C(=O)O)[C@H]2c1ccc2c(c1)OCO2 [MK-547]	231
c1cc(CCCc2ccncc2)ccn1 [4,4'-Propane-1,3-diyldipyridine]	146.1
c1ccc(CCCc2ccncc2)cc1 [4-(3-Phenylpropyl)pyridine]	145.9
CC1=C(C(=O)Nc2ccccc2)SCCO1 [Carboxin]	151.4
CCN(CCC#N)c1ccc(N=Nc2c(Cl)cc([N+](=O)[O-])cc2Cl)cc1 [C.I. Disperse Orange 37]	197.8
COc1cc(OC)nc(Oc2cccc(Oc3nc(OC)cc(OC)n3)c2C(=O)O)n1 [Bispyribac-sodium]	198.3
CCCCNC(=O)NCCCC [N,N'-Dibutylurea]	146.3
c1ccc(CNCc2ccccc2)cc1 [Dibenzylamine]	150.8
Clc1ccc(Nc2nnc(Cc3ccncc3)c3ccccc23)cc1 [Vatalanib dihydrochloride]	188
COc1cc(-c2ccc(N)c(OC)c2)ccc1N [C.I. Disperse Black 6 dihydrochloride]	169.7
